Tested on: HCT-15 colon
Test: NCI-60 one-dose screen, 48 h (100 = growth as untreated, 0 = no growth, -100 = all killed)
Conditions: 10 µM unless noted
This is part of a sample that, as a whole, favours compounds with a hit. Of some 83,000 tested, about 20% had one in any assay. The source made the active and inactive calls. The calls were made as follows: active = growth percent below 10; inactive = the rest.
observation_type: growth

# molecule, growth
records = [
    ("O=C(Cc1ccc(F)c(F)c1)Nc1cc(C2(C(F)(F)F)CC2)nn1Cc1ccccc1", "6.24% (active)"),
    ("N/C(=N/N=C/c1ccccc1)N/N=C\\c1ccccc1", "44.1% (inactive)"),
    ("CC(CCc1ccc(Cl)c(Cl)c1)NCc1ccc(C(C)(C)C)cc1 (centres undefined)", "77.3% (inactive)"),
]

# map each molecule to its growth
1. O=C(CCCCCCN1CC(=O)N2[C@@H](c3ccccc3Cl)c3[nH]c4ccccc4c3C[C@H]2C1=O)NO
2. COc1cc(C2NC(=O)c3ccccc3N2)ccc1OCCCCCOc1c(OC)cc(C2=NOC(c3cc(OC)c(OC)c(OC)c3)C2)cc1OC (centres undefined)
3. Clc1cccc(Cl)c1/C=C/c1cc(/C=C/c2c(Cl)cccc2Cl)[nH]n1
4. CN(C)CC1=NC2SC=C(c3ccccc3)C2C(=O)N1CC#N (centres undefined)

1: 97.5% (inactive); 2: 73% (inactive); 3: 27.7% (inactive); 4: 105% (inactive)

Give growth for each of the items listed below.
1. CNC(=O)c1cc(Oc2ccc3nc(Nc4ccc(Cl)c(C(F)(F)F)c4)ccc3c2)ccn1
2. COc1cc(CCC[P+](c2ccccc2)(c2ccccc2)c2ccccc2)cc2c1OCO2

1: 41.2% (inactive); 2: 106% (inactive)
